# melting point per entry

Consider the reported melting point for these molecules:
>>> df
                                   molecule  property_name       measured
0  COC(=O)c1cc([C@]2(c3ccc(F)c(-c4cccnc4F)c3)N=C(N)N(C)C2=O)cn1CCF [Example 184A]  melting point  111 to 113 °C
1  CCC(=O)c1cc(C2(c3cccc(-c4cccnc4F)c3)N=C(N)N(C)C2=O)cn1CC(C)C (stereo not shown)  melting point   98 to 102 °C
2  CCCCn1cc(C2(c3cccc(-c4cncnc4)c3)N=C(N)N(C)C2=O)cn1 (stereo not shown)  melting point    94 to 98 °C
3  COc1ccc(C2(c3ccc(-c4ccc(F)cc4)s3)N=C(N)N(C)C2=O)cc1C (stereo not shown)  melting point         110 °C
4  Cc1c(C2(c3cccc(-c4cccnc4F)c3)N=C(N)N(C)C2=O)cnn1CC(F)(F)F (stereo not shown)  melting point  235 to 238 °C

Alright, here's another molecule for you.
Ask: Could you tell me which melting point is on file for CCn1ccc(C2(c3cccc(-c4cncnc4)c3)N=C(N)N(C)C2=O)c1 (stereo not shown) ?
Result: 100 to 102 °C

----------
Parameter: melting point. Scope: all listed entries.
Where a name gives a salt, the structure may show the parent alone.

Examples from the recorded data:
In [3]: df
Out[3]:
                                   compound       measured
0  CN1C(=O)C(c2cccc(-c3cncnc3)c2)(c2cnn(CC(F)(F)F)c2)N=C1N (stereo not shown)  223 to 225 °C
1  CC(C)OC(=O)c1cc(C2(c3ccc(F)c(-c4cccnc4F)c3)N=C(N)N(C)C2=O)cn1CCF (stereo not shown)  117 to 118 °C
2  CN1C(=O)C(c2ccsc2)(c2cccc(-c3cnccn3)c2)N=C1N (stereo not shown)         223 °C
3  CCC(=O)c1cc(C2(c3cccc(-c4cccnc4F)c3)N=C(N)N(C)C2=O)cn1CCF (stereo not shown)         100 °C
4  Cc1nn(CC(F)(F)F)cc1C1(c2cccc(-c3cccnc3F)c2)N=C(N)N(C)C1=O (stereo not shown)  128 to 132 °C
5  CN1C(=O)C(c2cccc(OCc3ccccc3)c2)(c2cnn(CC(F)(F)F)c2)N=C1N (stereo not shown)    85 to 87 °C
6  CCC(=O)c1cc(C2(c3cccc(-c4cccnc4F)c3)N=C(N)N(C)C2=O)cn1CCCC(F)(F)F (stereo not shown)    91 to 94 °C
7  CCn1cc(C2(c3cccc(-c4cccnc4F)c3)N=C(N)N(C)C2=O)cc1C(=O)NC (stereo not shown)  138 to 140 °C

Below: the item to evaluate.
Ask: What value of melting point has been reported for the following compound? CCn1cc(C2(c3cccc(-c4cccnc4F)c3)N=C(N)N(C)C2=O)cc1/C=N/OC (stereo not shown) (as salt: hydrochloride)
Result: 190 to 193 °C

----------
Property Name: melting point

Worked cases, answers included:
>>> df
                                   compound  property_name       measured
0  CC(C)OC(=O)c1cc(C2(c3ccc(F)c(-c4cncnc4)c3)N=C(N)N(C)C2=O)cn1CCF (stereo not shown) [Example 127]  melting point  167 to 170 °C
1  CCN(CC)Cc1cc(C2(c3cccc(-c4cccnc4F)c3)N=C(N)N(C)C2=O)cn1CCF (stereo not shown) [Example 235]  melting point  121 to 140 °C
2  CC(C)Cn1cc(C2(c3cccc(-c4cccnc4F)c3)N=C(N)N(C)C2=O)cn1 (stereo not shown) [Example 3]  melting point    94 to 98 °C

Lab note: next compound to report on.
Ask: // query melting point value for entry COC(=O)c1cc(C2(c3cccc(-c4ccc(F)nc4)c3)N=C(N)N(C)C2=O)cn1CCF (stereo not shown) [Example 191]
Result: 206 to 210 °C

----------
melting point by entry:

Field: example entries. Status: answers known.
                                   molecule  property_name     measured
0  CN1C(=O)C(c2ccc(OC(F)F)cc2)(c2cnn(CC(F)(F)F)c2)N=C1N (centres unmarked) [Example 74]  melting point  70 to 72 °C
1  CCC(=O)c1cc(C2(c3cccc(-c4cccnc4F)c3)N=C(N)N(C)C2=O)cn1CCCF (centres unmarked) [Example 152]  melting point       105 °C
2  CN1C(=O)C(c2cccc(Br)c2)(c2ccn(CC(F)(F)F)c2)N=C1N (centres unmarked) [Example 51]  melting point  74 to 76 °C

Ask: Would you mind telling me what melting point value was observed for CN1C(=O)C(c2ccc(F)c(-c3cccnc3F)c2)(c2cnn(CC(F)(F)F)c2)N=C1N (centres unmarked) [Example 7] ?
Result: > 225 °C

Ask: // repeat for CCCCCOc1cccc(C2(c3cc(C(=O)CC)n(CC)c3)N=C(N)N(C)C2=O)c1 (centres unmarked) [Example 133] and report
Result: 70 °C

Ask: Continue with CCn1cc(C2(c3cccc(-c4cccnc4F)c3)N=C(N)N(C)C2=O)cc1C(=O)C1CC1 (centres unmarked) [Example 172]
Result: 98 to 100 °C

Ask: // next record COc1cccc(-c2cccc(C3(c4cnn(CC(F)(F)F)c4)N=C(N)N(C)C3=O)c2)c1 (centres unmarked) [Example 82]
Result: 95 to 97 °C

Ask: Same question for CCC(=O)c1cc(C2(c3cccc(-c4cccnc4F)c3)N=C(N)N(C)C2=O)cs1 (centres unmarked) [Example 115] please.
Result: 98 to 112 °C

----------
Property Name: melting point

# count of solved cases: 6
                                   compound  property_name       measured
0  CCC(=O)c1cc(C2(c3cccc(-c4cccnc4F)c3)N=C(N)N(C)C2=O)cn1CCCCF (stereo not shown)  melting point         105 °C
1  CCCCn1cc(C2(c3cccc(-c4cccnc4F)c3)N=C(N)N(C)C2=O)cn1 (stereo not shown)  melting point    88 to 92 °C
2  CCC(=O)c1cc(C2(c3cccc(-c4cncnc4)c3)N=C(N)N(C)C2=O)cn1CC(F)(F)F (stereo not shown)  melting point  135 to 137 °C
3  CN1C(=O)C(c2cccc(-c3cccnc3F)c2)(c2cnn(Cc3ccccc3)c2)N=C1N (stereo not shown)  melting point    94 to 97 °C
4  CN1C(=O)C(c2cccc(-c3cccnc3F)c2)(c2cc(C#N)n(CCF)c2)N=C1N (stereo not shown)  melting point  175 to 177 °C
5  CN1C(=O)C(c2cccc(-c3cncnc3)c2)(c2cscn2)N=C1N (stereo not shown)  melting point  234 to 237 °C

Ask: Query (compound): CC(C)n1cc(C2(c3ccc(F)c(-c4cncnc4)c3)N=C(N)N(C)C2=O)cn1 (stereo not shown) ; field requested: melting point
Result: 110 to 113 °C

Ask: Then what about the compound CCC(=O)c1cc(C2(c3cccc(NC(=O)COC)c3)N=C(N)N(C)C2=O)cn1CC (stereo not shown) ?
Result: 95 to 115 °C

----------
# key: entry, value: melting point

Reference set, count: 3
In [3]: df
Out[3]:
                                   compound  property_name       measured
0  C=CCCCOc1cccc(C2(c3cc(C(=O)CC)n(CC)c3)N=C(N)N(C)C2=O)c1 (stereo not shown)  melting point          69 °C
1  CCn1cc(C2(c3cccc(-c4cccnc4F)c3)N=C(N)N(C)C2=O)cc1C=O (stereo not shown)  melting point  198 to 201 °C
2  CCn1cc(C2(c3cccc(-c4cccnc4F)c3)N=C(N)N(C)C2=O)cc1C(=O)c1ccccc1 (stereo not shown)  melting point  104 to 106 °C

Now take the following compound into account.
Ask: Reported melting point for CN1C(=O)C(c2cccc(-c3cccnc3F)c2)(c2cc(C=O)n(CCF)c2)N=C1N (stereo not shown) : what is it?
Result: 218 to 221 °C

----------
Property Name: melting point

The cases that follow already have their melting point on record.
>>> print(df.to_string())
                                   compound       measured
0  Cc1nc(F)ccc1-c1cccc(C2(c3ccsc3)N=C(N)N(C)C2=O)c1 (stereo not shown)         140 °C
1  CCNC(=O)c1cc(C2(c3cccc(-c4cccnc4F)c3)N=C(N)N(C)C2=O)cn1CC (stereo not shown)  132 to 135 °C
2  CCn1cc(C2(c3cccc(-c4cccnc4F)c3)N=C(N)N(C)C2=O)cc1C(=O)N1CCOCC1 (stereo not shown)  108 to 109 °C

Next compound, melting point to be filled in.
Ask: Could you share which melting point value was measured for CCCn1cc(C2(c3cccc(-c4cccnc4F)c3)N=C(N)N(C)C2=O)cc1C#N (stereo not shown) ?
Result: 187 to 188 °C
